Test system: SW-620 colon
Experiment: NCI-60 one-dose screen, 48 h (100 = growth as untreated, 0 = no growth, -100 = all killed)
Details: 10 µM unless noted
About 83,000 compounds went through this panel and 20% of them were active in at least one assay; those are over-represented in the sample as a whole.
Experimental Readout: growth (%)
Kindly answer with a numeric value in %, unit omitted.

>>> print(df.to_string())
                                   molecule  readout_value
0  COc1cc(NC(=O)c2cc3ccccc3nc2Nc2ccc(F)cc2)cc(OC)c1OC           54.4
1  CS(=O)(=O)N(c1cc(-c2ccc3ncnc(Nc4cccc(Cl)c4)c3c2)cnc1Cl)S(C)(=O)=O           20.4
2  Cc1cc(Cl)ccc1OC(C)C(=O)Nc1nnc(C2CC2)s1 (centres undefined)            103

What measured growth goes with COC(=O)CCCCCCN=Cc1c(O)c(O)c(C(C)C)c2cc(C)c(-c3c(C)cc4c(C(C)C)c(O)c(O)c(C=NCCCCCCC(=O)OC)c4c3O)c(O)c12 ?
17.9
